Cited source for all entries: PubChem BioAssay AID1159606

Experiment: inhibitors of TWEAK-Fn14 signaling, primary screen, luciferase reporter cells, uHTS (AID 1159606)
Conditions: TWEAK-stimulated Fn14 reporter cells, luciferase luminescence, 8 h; at 10 µM
About 7,300 (2%) of roughly 360,000 compounds were called active. Rule as the data show it: active = inhibition above about 50%; inactive = the rest. This is one part of a sample in which actives are shown more often than they occur.
Hi! Could you answer with just one of these? true (1) for active, false (0) for inactive

molecule | category label
CN1CCN(/N=C/c2c[nH]c3ccccc23)CC1 | false (0)

Check the results log: what was the call for Cc1cc2ccccn2c1C(C[N+](=O)[O-])c1c(F)cccc1Cl (stereo not given) ?
true (1)

What about this molecule? C/C(=N/O)c1ccc2ccc3ccccc3c2c1
false (0)

What about this molecule? COC1=CC=C2[C@H]3Cc4ccc(OC)c5c4[C@@]2(CCN3C)C1O5 (stereo not given in full)
false (0)

What about this molecule? C[C@]12CC[C@H](O)C[C@H]1CC[C@@H]1C2CC[C@]2(C)[C@@H](C3=CC(=O)OC3)[C@@H](O)C[C@]12O (stereo not given in full)
true (1)

###

Reported inhibition is given for each of the following compounds.
Assay: inhibitors of TWEAK-Fn14 signaling, primary screen, luciferase reporter cells, uHTS (AID 1159606)
Conditions: TWEAK-stimulated Fn14 reporter cells, luciferase luminescence, 8 h; at 10 µM; hits give high values
Screen size: about 360,000 compounds; about 7,300 (2%) were called active. This excerpt belongs to a sample that is enriched for actives.
Your answer should be a plain number; it is taken to be in %.

Here are 5 compounds together with their reported answers.
compound | quantitative readout
C[C@H]1CN([C@@H](C)CO)C(=O)CCCn2nncc2CO[C@H]1CN(C)C(=O)Oc1cccc2ccccc12 | 9.18
C[C@]12CCC3C(CC[C@H]4[C@H](O)[C@H](O)CC[C@]34C)C1CCC2=O (some centres undefined) | 96.5
CCOC(=O)[C@]12Cc3ccccc3[C@H]1N(C1CCCCC1)C(=O)c1cc(OC)ccc12 | 42.5
CCCCCCCCCCCCn1ccc(=N)cc1 | 74
N#CC1=C(N)Oc2c(c(=O)oc3ccccc23)C1c1ccccc1OC(=O)c1cccs1 (centres undefined) | 51.3

Dear colleague, I am looking for the recorded inhibition of the following compound: CCN(N=Nc1nonc1OC)c1nonc1OC
-11.1

What about this compound? CC[N+]1(C)CCCC(OC(=O)C(O)(c2ccccc2)c2ccccc2)C1 (centres undefined)
-7.55

What about this compound? Cc1ccc(P(=S)(c2ccc(C)o2)N2CCOCC2)o1
73.2

What about this compound? C[C@]12CC[C@H](O)CC1=C([N+](=O)[O-])CC1C2CC[C@@]2(C)C1CC[C@@H]2O (some centres undefined)
1.49

###

Assay: inhibitors of TWEAK-Fn14 signaling, primary screen, luciferase reporter cells, uHTS (AID 1159606)
Conditions: TWEAK-stimulated Fn14 reporter cells, luciferase luminescence, 8 h; at 10 µM; hits give high values
In all, about 360,000 compounds went through this assay and about 7,300 (2%) were called active. Many of the other results were omitted from the sample, so actives are more common in it than they were.
Reported inhibition is given for each of the following compounds.
Your answer should be a plain number; it is taken to be in %.

Here are 5 compounds together with their reported answers.
compound | observation type | quantitative readout
Cc1cccc(-n2c(O)c(C=NC34CN5CN(CN(C5)C3)C4)c(=O)[nH]c2=O)c1 | inhibition | -1.26
COc1cccc(-c2nc3ccc(N4CCN(C)CC4)cc3[nH]2)c1 | inhibition | -27.5
CC1C(=O)OC2CCN3CC=C(COC(=O)C(C)(O)C1(C)O)C23 (stereo not given) | inhibition | -18.7
CNC(=O)O/N=C(\N)Cc1csc2ccccc12 | inhibition | 16.5
CC(=O)OC1C2(CC3N4C(=O)C5(CO)SSC4(CC31O)C(=O)N5C)OC(C)C(C)(C)C2=O (stereo not given) | inhibition | 107

Dear colleague, I am looking for the recorded inhibition of the following compound: CN(C)C(=O)NC(O)C(Cl)(Cl)Cl (stereo not given)
5.54

What about this compound? CN(C)CC1Oc2ccccc2OC1(O)c1ccccc1 (stereo not given)
79.6

What about this compound? CCOC(=O)[C@]12Cc3cc(OC)ccc3[C@H]1N(C(C)C)C(=O)c1ccccc12
25.1

What about this compound? CC(=NCc1ccc2c(c1)OCO2)c1c(O)[nH]c(=O)[nH]c1=O
-1.24

What about this compound? COC1C(O)C(C)OC(OC2CCC3(C=O)C(CCC4C3CCC3(C)C(C5=CC(=O)OC5)CCC43O)C2)C1O (stereo not given)
80.6

###

Reported inhibition is given for each of the following molecules.
Test: inhibitors of TWEAK-Fn14 signaling, primary screen, luciferase reporter cells, uHTS (AID 1159606)
Conditions: TWEAK-stimulated Fn14 reporter cells, luciferase luminescence, 8 h; at 10 µM; hits give high values
In all, about 360,000 compounds went through this assay and about 7,300 (2%) were called active. The entries come from a sample that favours actives as a whole.
Your answer should be a plain number; it is taken to be in %.

molecule | inhibition, %
Fc1cccc(F)c1CN1CCN(Cc2c(F)cccc2F)CC1 | 92.7
Cc1ncoc1C(=O)NCC1=C(c2cccc3ccccc23)C[C@@H]2CC[C@H]1N2Cc1ccco1 | -0.7
COc1ccccc1C1=NCc2nnc(CSC)n2-c2ccc(Cl)cc21 | 12.6
COc1ccccc1OC(=O)c1ccc(C)c(S(=O)(=O)N2CCOCC2)c1 | 5.54
O=Cc1cn(Cc2ccc(F)cc2Cl)c2ccccc12 | 56.5
CN(C)C(=O)Oc1cc(=O)n2c3c(cccc13)CCC2 | 30.3

Now for another entry.
Dear colleague, I am looking for the recorded inhibition of the following molecule: COCc1cc(OC(=O)N(C)C)nc(-c2ccc(C)c(Cl)c2)n1
6.49

###

Assay: inhibitors of TWEAK-Fn14 signaling, primary screen, luciferase reporter cells, uHTS (AID 1159606)
Conditions: TWEAK-stimulated Fn14 reporter cells, luciferase luminescence, 8 h; at 10 µM; hits give high values
The campaign covered roughly 360,000 compounds. About 7,300 (2%) were called active. Many of the other results were omitted from the sample, so actives are more common in it than they were.
Reported inhibition is given for each of the following molecules.
Your answer should be a plain number; it is taken to be in %.

Here are 2 molecules together with their reported answers.
molecule | inhibition [%]
Cc1cccc(NC(=O)N2CC3CC(C2)c2cccc(=O)n2C3)c1 (stereo not given) | 3.66
O=c1[nH]c(=O)n(-c2ccc(F)cc2)c(O)c1C=NCCN1CCCCC1 | 6.59

Dear colleague, I am looking for the recorded inhibition of the following molecule: CCN(CC)C(=O)Oc1ccc(NC(=O)N2CCOCC2)cc1
12.2

What about this molecule? COC(=O)C1=C(c2ccc(F)cc2F)C[C@@H]2CC[C@H]1N2C(=O)NC1CC1
10.7

###

Experiment: inhibitors of TWEAK-Fn14 signaling, primary screen, luciferase reporter cells, uHTS (AID 1159606)
Settings: TWEAK-stimulated Fn14 reporter cells, luciferase luminescence, 8 h; at 10 µM; hits give high values
Among all 360,000 compounds or so, about 7,300 (2%) were called active. Many of the other results were omitted from the sample, so actives are more common in it than they were.
observation type: inhibition (%)
Your answer should be a plain number; it is taken to be in %.

compound | observation type | quantitative readout
COc1ccccc1N1CCN(C(CNC(=O)Oc2ccccc2)c2cccnc2)CC1 (centres undefined) | inhibition | 3.6
COC(=O)C1=C(c2ccc(OCc3ccccc3)cc2)C[C@@H]2CC[C@H]1N2C(=O)NCc1cccc(F)c1 | inhibition | 37.4
Cc1cc(C(=O)OCC(=O)Nc2c(F)cccc2F)c(C)n1C1CC1 | inhibition | 4.53

Now for another entry.
Dear colleague, I am looking for the recorded inhibition of the following compound: CN1CCN(Cc2ccccc2C(F)(F)F)CC1
0.88

###

Reported inhibition is given for each of the following molecules.
Assay: inhibitors of TWEAK-Fn14 signaling, primary screen, luciferase reporter cells, uHTS (AID 1159606)
Settings: TWEAK-stimulated Fn14 reporter cells, luciferase luminescence, 8 h; at 10 µM; hits give high values
The whole screen tested about 360,000 compounds, of which about 7,300 (2%) were called active. The full list was thinned out, with actives kept by preference.
Your answer should be a plain number; it is taken to be in %.

molecule | quantitative readout
CCOP(=O)(OCC)C(O)c1ccc(OC)cc1OC (stereo unspecified) | 3.38
COC(=O)CN(CCCl)P1(=O)OCCCN1CCCl (stereo unspecified) | -6.99
O=C1NC(=O)C(CCOc2ccccc2)(CCc2ccccc2)C(=O)N1 | -21.8
C[C@]12CCC3C(CC[C@H]4[C@H](O)[C@H](O)CC[C@]34C)C1CC[C@@H]2O (stereo partly specified) | -13.2
CC(C)c1ccc(O)c(CN2CCN(c3ccccc3)CC2)c1 | 4.05

Dear colleague, I am looking for the recorded inhibition of the following molecule: COc1ccc2c(c1)NP(=S)(c1ccccc1)N2 (stereo unspecified)
-0.5
